- study target: Cannabinoid receptor 1 (Homo sapiens, UniProt P21554)
- Sequence (P21554 whole entry): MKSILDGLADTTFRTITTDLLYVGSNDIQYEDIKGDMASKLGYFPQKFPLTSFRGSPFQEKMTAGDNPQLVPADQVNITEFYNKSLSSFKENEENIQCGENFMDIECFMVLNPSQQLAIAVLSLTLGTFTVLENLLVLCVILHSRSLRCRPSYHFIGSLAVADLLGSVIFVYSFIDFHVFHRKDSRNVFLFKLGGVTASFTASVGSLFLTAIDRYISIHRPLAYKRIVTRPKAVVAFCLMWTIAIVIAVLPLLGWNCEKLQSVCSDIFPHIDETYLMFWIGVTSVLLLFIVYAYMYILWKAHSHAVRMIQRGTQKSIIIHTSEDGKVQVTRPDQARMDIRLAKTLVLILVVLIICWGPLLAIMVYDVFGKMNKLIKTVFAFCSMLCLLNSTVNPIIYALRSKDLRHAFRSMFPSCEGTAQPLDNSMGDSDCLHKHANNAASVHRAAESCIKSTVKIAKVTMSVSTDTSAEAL
- protocol notes: Allosteric modulation of human recombinant CB1 receptor expressed in HEK293 cells assessed as stimulation of [3H]CP55940 binding at 10 uM
- Format: cell-based
Labelling: Activity reported below 200% becomes MET; at or above becomes NOT MET.

compound: O=C(NCCc1ccc(Cl)cc1)c1cc2cc(Cl)ccc2[nH]1
category: MET
//
compound: CN(C)c1ccc(CCNC(=O)c2cc3cc(Cl)ccc3[nH]2)cc1
category: MET
//
compound: Cc1c(C(=O)NCCc2ccc(N3CCCCC3)cc2)[nH]c2ccc(Cl)cc12
category: NOT MET
//
compound: CCc1c(C(=O)NCCc2ccc(NC)cc2)[nH]c2ccc(Cl)cc12
category: MET
//
compound: CCc1c(C(=O)NCCc2ccc([N+](=O)[O-])cc2)[nH]c2ccc(Cl)cc12
category: NOT MET
//
compound: O=C(NCCc1ccc([N+](=O)[O-])cc1)c1cc2cc(Cl)ccc2[nH]1
category: MET
//
compound: CCc1c(C(=O)NCCc2ccc(N(C)C)cc2)[nH]c2ccc(Cl)cc12
category: NOT MET
//
compound: CCc1c(C(=O)NCCc2ccc(N)cc2)[nH]c2ccc(Cl)cc12
category: MET
//
compound: CCc1c(C(=O)NCCc2ccc(N3CCCC3)cc2)[nH]c2ccc(Cl)cc12
category: MET
//
compound: CC(O)c1c(C(=O)NCCc2ccc(N3CCCCC3)cc2)[nH]c2ccc(Cl)cc12 (racemic)
category: MET
//
compound: CCc1c(C(=O)NCCc2ccc(N3CCCCC3)cc2)[nH]c2ccc(Cl)cc12
category: NOT MET
//
compound: CCc1c(C(=O)NCCc2ccc(C)cc2)[nH]c2ccc(Cl)cc12
category: MET
//
compound: CCc1c(C(=O)NCCc2ccc(N3CCN(C)CC3)cc2)[nH]c2ccc(Cl)cc12
category: MET
//
compound: CCc1c(C(=O)NCCc2ccc(N3CCCCC3)cc2)[nH]c2ccccc12
category: NOT MET
//
compound: CCc1c(C(=O)NCCc2ccc(Cl)cc2)[nH]c2ccc(Cl)cc12
category: MET
//
compound: CCc1c(C(=O)NCCc2ccc(F)cc2)[nH]c2ccc(Cl)cc12
category: MET
//
compound: O=C(NCCc1ccc(N2CCCCC2)cc1)c1cc2cc(Cl)ccc2[nH]1
category: NOT MET

* * *

Reported IC50 by item:
- study target: Cannabinoid receptor 2 (Homo sapiens)
- Sequence (P34972 whole entry): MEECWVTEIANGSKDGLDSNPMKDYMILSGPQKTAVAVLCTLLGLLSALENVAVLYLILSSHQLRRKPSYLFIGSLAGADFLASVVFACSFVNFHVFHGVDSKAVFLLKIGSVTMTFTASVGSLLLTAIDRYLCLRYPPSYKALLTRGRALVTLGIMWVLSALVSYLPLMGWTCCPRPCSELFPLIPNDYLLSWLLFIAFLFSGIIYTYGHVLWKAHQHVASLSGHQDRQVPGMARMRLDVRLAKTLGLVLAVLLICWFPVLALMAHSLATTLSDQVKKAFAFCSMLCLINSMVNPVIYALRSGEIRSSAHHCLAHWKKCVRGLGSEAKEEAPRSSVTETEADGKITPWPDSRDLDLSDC
- protocol notes: Allosteric modulation of human recombinant CB2 receptor expressed in HEK293 cells assessed as inhibition of [3H]CP55940 binding

smiles notation: CN(C)c1ccc(CCNC(=O)c2cc3cc(Cl)ccc3[nH]2)cc1
IC50: > 10 µM

smiles notation: CCc1c(C(=O)NCCc2ccc(F)cc2)[nH]c2ccc(Cl)cc12
IC50: > 10 µM

smiles notation: CNc1ccc(CCNC(=O)c2cc3cc(Cl)ccc3[nH]2)cc1
IC50: > 10 µM

smiles notation: CCc1c(C(=O)OCCc2ccc(N3CCCCC3)cc2)[nH]c2ccc(Cl)cc12
IC50: 8.26 µM

smiles notation: CCc1c(C(=O)OCCc2ccc([N+](=O)[O-])cc2)[nH]c2ccc(Cl)cc12
IC50: > 10 µM

smiles notation: CCc1c(C(=O)NCCc2ccc(NC)cc2)[nH]c2ccc(Cl)cc12
IC50: 9.13 µM

smiles notation: CCc1c(C(=O)OCCc2ccc(N(C)C)cc2)[nH]c2ccc(Cl)cc12
IC50: 5.57 µM

smiles notation: CC(=O)c1c(C(=O)NCCc2ccc(N3CCCCC3)cc2)[nH]c2ccc(Cl)cc12
IC50: > 10 µM

smiles notation: CCc1c(C(=O)NCCc2ccc(N)cc2)[nH]c2ccc(Cl)cc12
IC50: > 10 µM

smiles notation: O=C(NCCc1ccc(N2CCCCC2)cc1)c1cc2cc(Cl)ccc2[nH]1
IC50: > 10 µM

* * *

Reported inhibition by item:
- study target: UniProt:P21554
- protocol notes: Allosteric modulation of human recombinant CB1 receptor expressed in HEK293 cells assessed as inhibitor of [3H]CP55940 binding at 10 uM
- Format: cell-based

smiles notation: CCc1c(C(=O)OCCc2ccc(N3CCCCC3)cc2)[nH]c2ccc(Cl)cc12
study target: UniProt:P21554
inhibition (%): 18
//
smiles notation: CNc1ccc(CCNC(=O)c2cc3cc(Cl)ccc3[nH]2)cc1
study target: UniProt:P21554
inhibition (%): 3.8
//
smiles notation: Nc1ccc(CCNC(=O)c2cc3cc(Cl)ccc3[nH]2)cc1
study target: UniProt:P21554
inhibition (%): 3.6
//
smiles notation: CCc1c(C(=O)OCCc2ccc([N+](=O)[O-])cc2)[nH]c2ccc(Cl)cc12
study target: UniProt:P21554
inhibition (%): 24.7
//
smiles notation: CCc1c(C(=O)OCCc2ccc(N(C)C)cc2)[nH]c2ccc(Cl)cc12
study target: UniProt:P21554
inhibition (%): 19.6

* * *

- study target: Cannabinoid receptor 1 (Homo sapiens)
- protocol notes: Allosteric modulation of human recombinant CB1 receptor expressed in HEK293 cells assessed as stimulation of [3H]CP55940 binding
Labelling: EC50 reported below 200 nM becomes Fulfilled; at or above becomes Not fulfilled.

compound: CCc1c(C(=O)NCCc2ccc(N)cc2)[nH]c2ccc(Cl)cc12
study target: Cannabinoid receptor 1 (Homo sapiens)
category: Not fulfilled
//
compound: CCc1c(C(=O)NCCc2ccc([N+](=O)[O-])cc2)[nH]c2ccc(Cl)cc12
study target: Cannabinoid receptor 1 (Homo sapiens)
category: Not fulfilled
//
compound: CCc1c(C(=O)NCCc2ccc(N3CCCCC3)cc2)[nH]c2ccc(Cl)cc12
study target: Cannabinoid receptor 1 (Homo sapiens)
category: Fulfilled
//
compound: O=C(NCCc1ccc([N+](=O)[O-])cc1)c1cc2cc(Cl)ccc2[nH]1
study target: Cannabinoid receptor 1 (Homo sapiens)
category: Not fulfilled
//
compound: CCc1c(C(=O)NCCc2ccc(N(C)C)cc2)[nH]c2ccc(Cl)cc12
study target: Cannabinoid receptor 1 (Homo sapiens)
category: Fulfilled
//
compound: CCc1c(C(=O)NCCc2ccc(NC)cc2)[nH]c2ccc(Cl)cc12
study target: Cannabinoid receptor 1 (Homo sapiens)
category: Not fulfilled
//
compound: CCc1c(C(=O)NCCc2ccc(C)cc2)[nH]c2ccc(Cl)cc12
study target: Cannabinoid receptor 1 (Homo sapiens)
category: Not fulfilled
//
compound: O=C(NCCc1ccc(N2CCCCC2)cc1)c1cc2cc(Cl)ccc2[nH]1
study target: Cannabinoid receptor 1 (Homo sapiens)
category: Fulfilled
//
compound: CCc1c(C(=O)NCCc2ccc(N3CCCC3)cc2)[nH]c2ccc(Cl)cc12
study target: Cannabinoid receptor 1 (Homo sapiens)
category: Not fulfilled
//
compound: CCc1c(C(=O)NCCc2ccc(Cl)cc2)[nH]c2ccc(Cl)cc12
study target: Cannabinoid receptor 1 (Homo sapiens)
category: Not fulfilled
//
compound: CCc1c(C(=O)NCCc2ccc(N3CCN(C)CC3)cc2)[nH]c2ccc(Cl)cc12
study target: Cannabinoid receptor 1 (Homo sapiens)
category: Not fulfilled
//
compound: Cc1c(C(=O)NCCc2ccc(N3CCCCC3)cc2)[nH]c2ccc(Cl)cc12
study target: Cannabinoid receptor 1 (Homo sapiens)
category: Not fulfilled
//
compound: O=C(NCCc1ccc(Cl)cc1)c1cc2cc(Cl)ccc2[nH]1
study target: Cannabinoid receptor 1 (Homo sapiens)
category: Not fulfilled
//
compound: CN(C)c1ccc(CCNC(=O)c2cc3cc(Cl)ccc3[nH]2)cc1
study target: Cannabinoid receptor 1 (Homo sapiens)
category: Not fulfilled
//
compound: CCc1c(C(=O)NCCc2ccc(N3CCCCC3)cc2)[nH]c2ccccc12
study target: Cannabinoid receptor 1 (Homo sapiens)
category: Not fulfilled
//
compound: CCc1c(C(=O)NCCc2ccc(F)cc2)[nH]c2ccc(Cl)cc12
study target: Cannabinoid receptor 1 (Homo sapiens)
category: Not fulfilled
//
compound: CC(O)c1c(C(=O)NCCc2ccc(N3CCCCC3)cc2)[nH]c2ccc(Cl)cc12 (racemic)
study target: Cannabinoid receptor 1 (Homo sapiens)
category: Not fulfilled

* * *

- study target: Cannabinoid receptor 2 (Homo sapiens)
- protocol notes: Allosteric modulation of human recombinant CB2 receptor expressed in HEK293 cells assessed as inhibition of [3H]CP55940 binding at 10 uM
- Format: cell-based
Class membership depends on inhibition alone; the intervals are lowest (below 30%), middle (30% to below 40%), highest (40% or more)

compound: CCc1c(C(=O)NCCc2ccc(N3CCN(C)CC3)cc2)[nH]c2ccc(Cl)cc12
study target: Cannabinoid receptor 2 (Homo sapiens)
category: highest
//
compound: CCc1c(C(=O)NCCc2ccc(N)cc2)[nH]c2ccc(Cl)cc12
study target: Cannabinoid receptor 2 (Homo sapiens)
category: middle
//
compound: CC(O)c1c(C(=O)NCCc2ccc(N3CCCCC3)cc2)[nH]c2ccc(Cl)cc12 (racemic)
study target: Cannabinoid receptor 2 (Homo sapiens)
category: middle
//
compound: Nc1ccc(CCNC(=O)c2cc3cc(Cl)ccc3[nH]2)cc1
study target: Cannabinoid receptor 2 (Homo sapiens)
category: middle
//
compound: CCc1c(C(=O)NCCc2ccc(Cl)cc2)[nH]c2ccc(Cl)cc12
study target: Cannabinoid receptor 2 (Homo sapiens)
category: highest
//
compound: CCc1c(C(=O)NCCc2ccc(N(C)C)cc2)[nH]c2ccc(Cl)cc12
study target: Cannabinoid receptor 2 (Homo sapiens)
category: lowest
//
compound: CCc1c(C(=O)OCCc2ccc(N3CCCCC3)cc2)[nH]c2ccc(Cl)cc12
study target: Cannabinoid receptor 2 (Homo sapiens)
category: highest
//
compound: CNc1ccc(CCNC(=O)c2cc3cc(Cl)ccc3[nH]2)cc1
study target: Cannabinoid receptor 2 (Homo sapiens)
category: highest
//
compound: CN(C)c1ccc(CCNC(=O)c2cc3cc(Cl)ccc3[nH]2)cc1
study target: Cannabinoid receptor 2 (Homo sapiens)
category: highest
//
compound: CCc1c(C(=O)OCCc2ccc([N+](=O)[O-])cc2)[nH]c2ccc(Cl)cc12
study target: Cannabinoid receptor 2 (Homo sapiens)
category: lowest
